Where do the numbers come from? From patent US20220133641A1.

# TEST_NAME: In-vivo study in healthy rats, drug plasma concentration after 4 sprays
# TEST_CONDITIONS: rat, topical, 8 mg strength, 0 Hr
Where a name gives a salt, the structure may show the parent alone.
PARAMETER_MEASURED: concentration at 0 h
Quote the value and follow it with the unit of measurement.

Look at this molecule and give its reported concentration at 0 h. CCCCN1CCCCC1C(=O)Nc1c(C)cccc1C (stereo not shown) [Bupivacaine HCl]
1 ng/mL

###

# TEST_NAME: In-vivo study in healthy rats, drug plasma concentration after 4 sprays
# TEST_CONDITIONS: rat, topical, 12 mg strength, 2 Hr
Where a name gives a salt, the structure may show the parent alone.
PARAMETER_MEASURED: concentration at 2 h (ng/mL)
Answers are plain numbers, in ng/mL.

Look at this compound and give its reported concentration at 2 h. CCCCN1CCCCC1C(=O)Nc1c(C)cccc1C (stereo not shown) [Bupivacaine HCl]
180
